- system_under_test: Disintegrin and metalloproteinase domain-containing protein 17 (Homo sapiens)
- Sequence (P78536 whole entry, the tested form may be a part): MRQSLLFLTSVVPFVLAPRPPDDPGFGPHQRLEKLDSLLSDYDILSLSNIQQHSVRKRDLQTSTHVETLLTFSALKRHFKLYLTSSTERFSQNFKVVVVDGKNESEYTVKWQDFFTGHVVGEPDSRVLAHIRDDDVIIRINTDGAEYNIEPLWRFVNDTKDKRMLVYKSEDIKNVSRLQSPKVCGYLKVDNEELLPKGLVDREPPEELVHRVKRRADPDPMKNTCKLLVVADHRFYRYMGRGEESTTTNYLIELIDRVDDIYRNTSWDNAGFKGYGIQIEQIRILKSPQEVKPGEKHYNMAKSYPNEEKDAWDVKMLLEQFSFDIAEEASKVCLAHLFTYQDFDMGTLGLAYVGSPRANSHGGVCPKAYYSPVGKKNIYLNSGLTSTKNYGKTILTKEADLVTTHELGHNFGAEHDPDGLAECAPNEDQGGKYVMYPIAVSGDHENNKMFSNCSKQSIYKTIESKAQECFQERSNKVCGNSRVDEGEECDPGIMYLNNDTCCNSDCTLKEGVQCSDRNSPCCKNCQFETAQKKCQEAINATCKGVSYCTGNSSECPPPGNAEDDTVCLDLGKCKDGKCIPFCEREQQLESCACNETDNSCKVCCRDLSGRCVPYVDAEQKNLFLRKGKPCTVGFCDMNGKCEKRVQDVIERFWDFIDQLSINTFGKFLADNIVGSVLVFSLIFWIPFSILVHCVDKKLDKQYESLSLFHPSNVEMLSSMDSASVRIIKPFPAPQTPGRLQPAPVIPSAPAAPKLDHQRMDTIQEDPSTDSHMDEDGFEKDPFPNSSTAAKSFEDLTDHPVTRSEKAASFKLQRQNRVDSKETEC
- assay_procedure: Inhibition of ADAM-17 in human A2780 cells assessed as inhibition of pervanadate-induced sALCAM release incubated for 30 mins prior to pervanadate induction measured after 90 mins by ELISA
- Format: cell-based
property_measured: pIC50
As a rule, pIC50 stands for the negative log10 of the concentration, concentration in M.

Sample records with pIC50:
smiles_entry	recorded_value
O=C(NCCC[C@@H](NS(=O)(=O)c1ccc(OCc2cc(Br)cc(Br)c2)cc1)C(=O)NO)OCc1ccccc1	6.46
O=C(CNS(=O)(=O)c1ccc(OCc2cc(Br)cc(Br)c2)cc1)NO	6.08

Kindly review the next molecule as well.
Provide value of pIC50 for this record tested with Disintegrin and metalloproteinase domain-containing protein 17 (Homo sapiens): O=C(NCC[C@@H](NS(=O)(=O)c1ccc(OCc2cc(Br)cc(Br)c2)cc1)C(=O)NO)OCc1ccccc1
6.08

###

- system_under_test: UniProt P08253
- Sequence (P08253 whole entry): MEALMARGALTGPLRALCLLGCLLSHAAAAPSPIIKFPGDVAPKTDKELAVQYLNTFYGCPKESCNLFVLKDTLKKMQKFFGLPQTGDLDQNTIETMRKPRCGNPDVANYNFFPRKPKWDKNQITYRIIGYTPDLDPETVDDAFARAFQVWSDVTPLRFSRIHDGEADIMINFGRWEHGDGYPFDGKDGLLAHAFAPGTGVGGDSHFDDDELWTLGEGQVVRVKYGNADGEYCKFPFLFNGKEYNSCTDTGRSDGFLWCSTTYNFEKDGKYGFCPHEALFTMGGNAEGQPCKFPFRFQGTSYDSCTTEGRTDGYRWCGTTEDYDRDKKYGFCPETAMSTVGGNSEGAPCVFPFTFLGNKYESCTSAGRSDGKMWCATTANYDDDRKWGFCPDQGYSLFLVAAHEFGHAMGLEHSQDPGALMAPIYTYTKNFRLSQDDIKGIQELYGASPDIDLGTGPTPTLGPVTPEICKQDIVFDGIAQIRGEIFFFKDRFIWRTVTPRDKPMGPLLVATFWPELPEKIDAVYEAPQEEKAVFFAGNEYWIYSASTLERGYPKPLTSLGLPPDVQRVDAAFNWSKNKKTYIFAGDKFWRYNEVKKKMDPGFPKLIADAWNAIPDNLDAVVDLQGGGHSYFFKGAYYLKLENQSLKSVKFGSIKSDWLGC
- assay_procedure: Inhibition of recombinant human MMP-2 using Mca-Lys-Pro-Leu-Gly-Leu-Dap(Dnp)-Ala-Arg-NH2 as substrate incubated for 4 hrs measured every 15 secs for 20 mins by fluorimetric assay
property_measured: pIC50
Scale note: pIC50 = -log10(concentration in M).

smiles_entry	property_measured	recorded_value
O=C(CNS(=O)(=O)c1ccc(OCc2ccc(F)cc2)cc1)NO	pIC50	8.52

What does the record list as pIC50 for COc1ccc(-c2cc(Br)cc(COc3ccc(S(=O)(=O)NCC(=O)NO)cc3)c2)cc1 ?
5.42

Given the molecule O=C(CNS(=O)(=O)c1ccc(OCc2cccc(OC(F)(F)F)c2)cc1)NO , what is its reported pIC50?
7.70

# get_value(readout='pIC50', item= O=C(NCC[C@@H](NS(=O)(=O)c1ccc(OCc2cc(Br)cc(Br)c2)cc1)C(=O)NO)OCc1ccccc1 )
5.39

###

- Tested on: A2780
- assay_procedure: Cytotoxicity against human A2780 cells assessed as cell viability at 0.01 to 10 uM after 24 to 72 hrs by MTT assay
- Type: cell-based
- details: a2780, 10 µM
property_measured: Activity

Some solved entries appear below for comparison.
smiles_entry	property_measured	recorded_value
NC(=O)NCCC[C@@H](NS(=O)(=O)c1ccc(OCc2cc(Br)cc(Br)c2)cc1)C(=O)NO	Activity	Non-toxic
O=C(NCCC[C@@H](NS(=O)(=O)c1ccc(OCc2cc(Br)cc(Br)c2)cc1)C(=O)NO)OCc1ccccc1	Activity	Non-toxic
O=C(NCC[C@@H](NS(=O)(=O)c1ccc(OCc2cc(Br)cc(Br)c2)cc1)C(=O)NO)OCc1ccccc1	Activity	Non-toxic
CC#CCOc1ccc(S(=O)(=O)N[C@H](CCNC(=O)OCc2ccccc2)C(=O)NO)cc1	Activity	Non-toxic

Continue with the next compound.
Field request: Activity | item: O=C(CNS(=O)(=O)c1ccc(OCc2cc(Br)cc(Br)c2)cc1)NO
Non-toxic

###

The entries below are paired with their reported IC50.
- system_under_test: Matrix metalloproteinase-9 (Homo sapiens)
- assay_procedure: Inhibition of recombinant human MMP-9 using Mca-Lys-Pro-Leu-Gly-Leu-Dap(Dnp)-Ala-Arg-NH2 as substrate incubated for 4 hrs measured every 15 secs for 20 mins by fluorimetric assay
Numbers only; they are read as nM.

Take a look at these entries with their results.
smiles_entry	recorded_value
O=C(CNS(=O)(=O)c1ccc(OCc2cc(F)cc(F)c2)cc1)NO	330
O=C(CNS(=O)(=O)c1ccc(OCc2cccc(F)c2)cc1)NO	110
O=C(CNS(=O)(=O)c1ccc(OCc2cccc(-c3ccccc3)c2)cc1)NO	920
O=C(CNS(=O)(=O)c1ccc(OCc2ccc(-c3ccccc3)cc2)cc1)NO	690

Fill in: IC50 of O=C(CNS(=O)(=O)c1ccc(OCc2ccccc2)cc1)NO is ___
96

Can you look up the measured IC50 of O=C(CNS(=O)(=O)c1ccc(OCc2cccc3cccnc23)cc1)NO for me?
29000

Please look up its IC50: O=C(CNS(=O)(=O)c1ccc(OCc2ccc(OC(F)(F)F)cc2)cc1)NO
37

I am curious: what IC50 value has been reported for O=C(CNS(=O)(=O)c1ccc(OCc2ccc(F)cc2)cc1)NO ?
42

Param item = O=C(CNS(=O)(=O)c1ccc(OCc2cccc(Br)c2)cc1)NO ; retrieve measured IC50.
60

Given the molecule CC#CCOc1ccc(S(=O)(=O)NCC(=O)NO)cc1 , what is its reported IC50?
890

###

- system_under_test: Interstitial collagenase (Homo sapiens)
- Sequence (P03956 whole entry): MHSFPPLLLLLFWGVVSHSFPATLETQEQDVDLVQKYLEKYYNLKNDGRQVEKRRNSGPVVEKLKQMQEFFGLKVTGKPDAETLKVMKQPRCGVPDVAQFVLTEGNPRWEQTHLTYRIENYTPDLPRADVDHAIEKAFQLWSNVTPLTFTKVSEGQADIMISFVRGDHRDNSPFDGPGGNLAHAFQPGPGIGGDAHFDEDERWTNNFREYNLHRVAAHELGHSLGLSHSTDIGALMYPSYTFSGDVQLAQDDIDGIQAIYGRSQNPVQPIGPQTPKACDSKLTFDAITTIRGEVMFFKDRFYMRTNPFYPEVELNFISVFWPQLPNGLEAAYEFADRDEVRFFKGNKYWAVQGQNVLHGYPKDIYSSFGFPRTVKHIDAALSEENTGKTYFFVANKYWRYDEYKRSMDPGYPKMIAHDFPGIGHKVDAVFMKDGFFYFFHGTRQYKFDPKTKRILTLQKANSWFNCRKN
- assay_procedure: Inhibition of recombinant human MMP-1 using Mca-Lys-Pro-Leu-Gly-Leu-Dap(Dnp)-Ala-Arg-NH2 as substrate incubated for 4 hrs measured every 15 secs for 20 mins by fluorimetric assay
pIC50: −log10 of the molar value.
pIC50: recorded values

Sample answers from the record:
smiles_entry	pIC50
O=C(CNS(=O)(=O)c1ccc(OCc2cccc(Br)c2)cc1)NO	< 3.30
O=C(CNS(=O)(=O)c1ccc(OCc2cc(Br)cc(Br)c2)cc1)NO	< 3.30

Would you mind telling me what pIC50 value was observed for NC(=O)NCCC[C@@H](NS(=O)(=O)c1ccc(OCc2cc(Br)cc(Br)c2)cc1)C(=O)NO ?
< 3.30

###

- system_under_test: Disintegrin and metalloproteinase domain-containing protein 10 (Homo sapiens)
- Sequence (O14672 whole entry): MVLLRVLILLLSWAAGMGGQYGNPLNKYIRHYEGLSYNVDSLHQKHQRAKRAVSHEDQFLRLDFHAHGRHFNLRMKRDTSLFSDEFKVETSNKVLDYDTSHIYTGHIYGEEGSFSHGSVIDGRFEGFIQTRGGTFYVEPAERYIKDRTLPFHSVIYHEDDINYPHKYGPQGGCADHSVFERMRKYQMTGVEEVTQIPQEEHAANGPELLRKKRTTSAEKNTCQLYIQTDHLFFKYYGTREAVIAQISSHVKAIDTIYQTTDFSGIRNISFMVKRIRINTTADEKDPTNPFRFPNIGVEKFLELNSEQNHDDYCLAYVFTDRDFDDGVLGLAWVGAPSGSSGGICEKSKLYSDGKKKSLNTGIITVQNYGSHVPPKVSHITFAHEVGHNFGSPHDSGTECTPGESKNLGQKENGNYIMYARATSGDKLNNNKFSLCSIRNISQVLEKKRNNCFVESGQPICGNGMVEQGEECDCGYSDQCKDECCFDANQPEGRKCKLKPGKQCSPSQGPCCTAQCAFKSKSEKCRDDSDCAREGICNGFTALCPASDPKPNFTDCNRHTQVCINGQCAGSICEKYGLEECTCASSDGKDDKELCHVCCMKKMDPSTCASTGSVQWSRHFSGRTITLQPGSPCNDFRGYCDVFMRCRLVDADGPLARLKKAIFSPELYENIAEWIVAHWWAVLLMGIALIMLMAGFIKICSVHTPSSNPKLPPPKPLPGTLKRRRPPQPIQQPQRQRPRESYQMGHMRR
- assay_procedure: Inhibition of recombinant human ADAM-10 using Mca-Lys-Pro-Leu-Gly-Leu-Dap(Dnp)-Ala-Arg-NH2 as substrate incubated for 1 hr measured every 15 secs for 20 mins by fluorimetric assay
property_measured: pIC50
API: returns pIC50 as number; meaning -log10 of concentration in mol/L.

Example entries and their recorded answers appear below.
smiles_entry	pIC50
O=C(CNS(=O)(=O)c1ccc(OCc2cc(Br)cc(Br)c2)cc1)NO	4.41
O=C(NCC[C@@H](NS(=O)(=O)c1ccc(OCc2cc(Br)cc(Br)c2)cc1)C(=O)NO)OCc1ccccc1	5.09

API: value(readout= pIC50, system= Disintegrin and metalloproteinase domain-containing protein 10 (Homo sapiens), query= O=C(NCCC[C@@H](NS(=O)(=O)c1ccc(OCc2cc(Br)cc(Br)c2)cc1)C(=O)NO)OCc1ccccc1 )
6.52

###

- system_under_test: Matrix metalloproteinase-9 (Homo sapiens, UniProt P14780)
- Sequence (P14780 whole entry): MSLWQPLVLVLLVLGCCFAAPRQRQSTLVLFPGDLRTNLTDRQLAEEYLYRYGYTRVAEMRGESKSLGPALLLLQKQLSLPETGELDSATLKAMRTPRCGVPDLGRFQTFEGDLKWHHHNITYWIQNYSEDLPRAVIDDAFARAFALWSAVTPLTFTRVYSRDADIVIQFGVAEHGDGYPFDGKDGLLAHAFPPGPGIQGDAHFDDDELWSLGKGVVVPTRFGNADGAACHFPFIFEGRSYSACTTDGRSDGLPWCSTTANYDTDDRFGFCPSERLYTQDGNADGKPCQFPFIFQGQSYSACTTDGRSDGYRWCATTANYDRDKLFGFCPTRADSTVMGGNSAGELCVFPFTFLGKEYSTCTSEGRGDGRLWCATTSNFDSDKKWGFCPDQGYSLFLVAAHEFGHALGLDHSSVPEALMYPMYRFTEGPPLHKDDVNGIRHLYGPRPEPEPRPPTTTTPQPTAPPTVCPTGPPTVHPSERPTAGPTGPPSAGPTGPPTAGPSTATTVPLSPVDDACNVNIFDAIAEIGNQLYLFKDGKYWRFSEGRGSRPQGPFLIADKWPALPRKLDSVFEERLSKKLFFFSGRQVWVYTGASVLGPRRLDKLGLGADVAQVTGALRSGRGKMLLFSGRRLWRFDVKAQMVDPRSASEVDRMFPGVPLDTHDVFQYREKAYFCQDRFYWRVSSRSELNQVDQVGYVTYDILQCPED
- assay_procedure: Inhibition of recombinant human MMP-9 using Mca-Lys-Pro-Leu-Gly-Leu-Dap(Dnp)-Ala-Arg-NH2 as substrate incubated for 4 hrs measured every 15 secs for 20 mins by fluorimetric assay
pIC50: −log10 of the molar value.
# pIC50 >= 7 gives MET, anything below gives NOT MET

Example results:
smiles_entry	assigned_label
O=C(CNS(=O)(=O)c1ccc(OCc2cc(Br)cc(Br)c2)cc1)NO	NOT MET
O=C(NCCC[C@@H](NS(=O)(=O)c1ccc(OCc2cc(Br)cc(Br)c2)cc1)C(=O)NO)OCc1ccccc1	NOT MET
O=C(NCC[C@@H](NS(=O)(=O)c1ccc(OCc2cc(Br)cc(Br)c2)cc1)C(=O)NO)OCc1ccccc1	NOT MET

From here, focus on the item given below.
Exam item: decide whether the reported pIC50 for O=C(CNS(=O)(=O)c1ccc(OCc2ccc(Br)cc2)cc1)NO is at least 7.
MET

###

- system_under_test: Matrix metalloproteinase-14 (Homo sapiens)
- assay_procedure: Inhibition of recombinant human MMP-14 catalytic domain using Mca-Lys-Pro-Leu-Gly-Leu-Dap(Dnp)-Ala-Arg-NH2 as substrate incubated for 4 hrs measured every 15 secs for 20 mins by fluorimetric assay
Reported values of pIC50 for individual entries
pIC50 here: minus log base 10 of the concentration, concentration in moles per litre.

Reported pIC50 for O=C(CNS(=O)(=O)c1ccc(OCc2cc(Br)cc(-c3cccnc3)c2)cc1)NO : what is it?
4.67
